# TGI listing for each entry below
Test system: COLO 205 colon
Procedure text: NCI tumour cell line growth inhibition, 48 h

>>> print(df.to_string())
                                   molecule  quantity  reported_measurement
0  O=C(O)CCCc1ccc2c(c1)CC1(C2)Cc2cc3c(cc2C1)CCCC3       TGI               38.2 µM
1  CCN(/C=C1/C(=O)C(c2ccccc2)N(c2ccccc2)C1=O)CC (centres undefined)       TGI               > 10 µM
2                    N#Cc1sc2nc3ccccc3n2c1N       TGI              > 100 µM
3   CCc1cccc(CC)c1NC(=O)/C(Cl)=C(/Cl)C(=O)O       TGI               30.3 µM
4                    CCOC(=O)C1=C(NC)OCC1=O       TGI              > 100 µM

Consider the molecule CC12OC(=O)C(C#N)C1(C)C1C(=O)CCCC12 (centres undefined) and give its recorded TGI.
> 100 µM

Consider the molecule `CN(NC1=NCCO1)c1ccc2ccccc2c1` and give its recorded TGI.
> 100 µM

Consider the molecule `COc1ccc(Nc2cnc3cc(N)cc(N)c3n2)cc1` and give its recorded TGI.
> 100 µM

Consider the molecule `COc1ccc2ccccc2c1C1=NC(C)(C)CO1` and give its recorded TGI.
> 100 µM

* * *

# TGI listing for each entry below
Test system: MCF7 breast
Procedure text: NCI tumour cell line growth inhibition, 48 h

                                   compound  experimental_target  reported_measurement
0  COC(=O)c1cc(S(=O)(=O)NC2=NCC(C)NN2)c(S)cc1Cl (stereo unspecified)          MCF7 breast              > 100 µM

Consider the compound `Cn1c(=O)c2nc3sc4c(n3c2n(C)c1=O)C(=O)c1ccccc1C4=O` and give its recorded TGI.
> 62 µM

Consider the compound `COc1cc([C@@H]2c3cc4c(cc3[C@@H](Nc3ccc(NC(=O)c5cc([N+](=O)[O-])cn5C)cc3)[C@H]3COC(=O)[C@H]23)OCO4)cc(OC)c1O` and give its recorded TGI.
> 31.6 µM

Consider the compound Cc1ccc(S(=O)(=O)OC2CC(C(C)(C)C)CCC2c2ccccc2)cc1 (stereo unspecified) and give its recorded TGI.
> 100 µM

Consider the compound `CCOC(=O)c1c(NC(=O)c2ccccc2)c(C#N)c2n1CCCCC2` and give its recorded TGI.
> 100 µM

Consider the compound `CC(=O)c1ccc(Nc2c3c(nc4ccccc24)CCCC3)cc1` and give its recorded TGI.
> 100 µM

* * *

# GI50 listing for each entry below
Tested on: IGROV1 ovarian
Procedure text: NCI tumour cell line growth inhibition, 48 h

>>> print(df.to_string())
                                   molecule  reported_measurement
0  C(=Nc1nc(SCc2ccccc2)nc2[nH]ncc12)c1cccs1              > 100 µM
1  CCC(c1ccccc1)c1noc(CCN(CC)CC)n1 (stereo unspecified)             > 48.5 µM
2  CNCc1ccc(-c2cc(-c3nc(-c4ccc(S(=O)(=O)C(C)C)cc4)cnc3N)on2)cc1                1.2 µM
3  CCCCCCCCCCCC[C@@H](O)[C@H]1CC[C@H]([C@H](O)CC[C@H](O)[C@@H]2CC[C@@H](CCCCCCCC3=C[C@H](C)OC3=O)O2)O1               8.89 µM
4  CC(C)[C@@H]1CC[C@]2(CO2)[C@@H]2C(=O)OCC(C(=O)O)=C[C@H]21              0.442 µM

With those in mind, consider the next molecule.
Fetch value of GI50 on IGROV1 ovarian for `COc1cc(/C=C/c2cc(/C=C/c3ccc(O)c(OC)c3)n(C(=O)c3ccccc3Br)n2)ccc1O` .
4.11 µM

* * *

System: A498 renal
Procedure text: NCI tumour cell line growth inhibition, 48 h
Quantity: TGI (µM)
Reply numerically in µM, unit not repeated.

A selection of reference data follows.
In [3]: df
Out[3]:
                                   compound  quantity  reported_measurement
0  CN1CCN(c2c(F)cc(NC3=C(Cl)C(=O)c4ncccc4C3=O)cc2F)CC1       TGI                  29.2
1  CC(C)C(Cl)CCC(C)(Cl)C(=O)CBr (configuration not stated)       TGI                  30.3
2          COc1ccc2c(C(=O)O)cc3ccccc3c2c1OC       TGI                  40.7

Consider the compound `CSC(=O)/C=C1\SS/C(=C\C(=O)SC)S1` and give its recorded TGI.
21.5

Consider the compound `O=C1c2cc3c(cc2-c2c1c1ccc(Cl)cc1c(=O)n2C[C@H](O)CO)OCO3` and give its recorded TGI.
0.16

Consider the compound `CC(C)(CN1CCCCC1)C(=O)/C=C/c1ccc(Br)cc1` and give its recorded TGI.
5.8

* * *

System: XF 498 CNS
Procedure text: NCI tumour cell line growth inhibition, 48 h
Quantity: TGI

>>> df
                                   molecule  reported_measurement
0  CC(=O)OCC(=O)[C@@]1(O)CC[C@H]2[C@@H]3C[C@H](C)C4=CC(=O)C=C[C@]4(C)[C@@]3(F)[C@@H](O)C[C@@]21C              > 100 µM

Consider the molecule `O=C1c2ccccc2C(=O)c2[nH]cnc21` and give its recorded TGI.
99.4 µM

Consider the molecule C=CCNC(=O)C(C)C1CCC2(C)C=CC(=O)C(C)=C2C1O (stereo not given) and give its recorded TGI.
> 100 µM

Consider the molecule Cc1ccccc1C(CCCO)C(=O)O (stereo not given) and give its recorded TGI.
> 100 µM

Consider the molecule `CCN(CC)CCNc1ccc2ncn3c4ccc(O)cc4c(=O)c1c23` and give its recorded TGI.
7.42 µM

* * *

# TGI listing for each entry below
System: UACC-62 melanoma
Procedure text: NCI tumour cell line growth inhibition, 48 h

A selection of reference data follows.
Molecule	TGI
COc1ccc(/C=C2\C(=O)N(NC(C)=O)c3ccccc32)cc1	> 100 µM
COc1ccccc1Oc1nccc(-c2c(-c3ccc(F)cc3)ncn2C2CCNCC2)n1	> 25 µM
CCC(c1ccccc1)c1noc(CCN(CC)CC)n1 (stereo not given)	> 100 µM
C[C@@H](CC(=O)OCc1ccccc1)OC1OC(COC(=O)C(C)(C)C)C(OC(=O)C(C)(C)C)C(OC(=O)C(C)(C)C)C1OC(=O)C(C)(C)C (stereo not given in full)	> 100 µM

With those in mind, consider the next molecule.
Consider the molecule `Cc1c(C)c(S(=O)(=O)N(CCCCN)OCCCN)c(C)c2c1OC(C)(C)CC2` and give its recorded TGI.
72.2 µM

* * *

Tested on: HCT-15 colon
Procedure text: NCI tumour cell line growth inhibition, 48 h
Quantity: TGI

A selection of reference data follows.
>>> print(df.to_string())
                                   molecule  quantity  reported_measurement
0  CC(=O)[CH-]C(=O)c1ccccc1.[C-]#[O+].[C-]#[O+].[Ir]       TGI              > 100 µM
1  O=C(c1ccccc1)C1(Br)S(=O)(=O)OCCOS1(=O)=O       TGI              > 100 µM
2      COC(=O)/C=C/c1ccc(OP(=O)(O)O)c(OC)c1       TGI              > 100 µM
3             c1ccc(C(c2ccccc2)c2ccccn2)cc1       TGI              > 100 µM
4  Cn1c(=O)c2nc3sc4c(n3c2n(C)c1=O)C(=O)c1ccccc1C4=O       TGI             > 86.5 µM

With those in mind, consider the next molecule.
Consider the molecule O=C(NCCc1ccccc1)C1C(=O)C(=O)N(CCc2ccccc2)C1=O (stereo unspecified) and give its recorded TGI.
> 100 µM

* * *

Tested on: MCF7 breast
Procedure text: NCI tumour cell line growth inhibition, 48 h
# TGI listing for each entry below

Fetch value of TGI on MCF7 breast for O=C1CC(c2cccc(Cl)c2)Nc2ccc(N3CCCC3)cc21 (stereo not drawn) .
> 100 µM

Fetch value of TGI on MCF7 breast for `COc1ccc(OC)c2sc(N3C(=O)/C(=C/c4cccc(Oc5ccccc5)c4)N=C3c3ccccc3)nc12` .
> 100 µM

Fetch value of TGI on MCF7 breast for `Nc1nccc(-c2c(-c3ccc(F)cc3)nn3cc(C(F)(F)F)ccc23)n1` .
> 25 µM
